# Lookup of reported koff keyed by entry
target: T1, IL-13RA2 huFc (human); experiment: SPR (Biacore T200), ligand IL13Ra2 on the chip, scFv_Fc as analyte at 6.25 to 100 nM, 1:1 binding fit, flow 30 ul/min
T1 construct: Expressed in 293F cells, purified on protein A; also called human IL13RA2; recombinant IL-13RA2
T1 sequence (chain, as listed by the source limits assumed): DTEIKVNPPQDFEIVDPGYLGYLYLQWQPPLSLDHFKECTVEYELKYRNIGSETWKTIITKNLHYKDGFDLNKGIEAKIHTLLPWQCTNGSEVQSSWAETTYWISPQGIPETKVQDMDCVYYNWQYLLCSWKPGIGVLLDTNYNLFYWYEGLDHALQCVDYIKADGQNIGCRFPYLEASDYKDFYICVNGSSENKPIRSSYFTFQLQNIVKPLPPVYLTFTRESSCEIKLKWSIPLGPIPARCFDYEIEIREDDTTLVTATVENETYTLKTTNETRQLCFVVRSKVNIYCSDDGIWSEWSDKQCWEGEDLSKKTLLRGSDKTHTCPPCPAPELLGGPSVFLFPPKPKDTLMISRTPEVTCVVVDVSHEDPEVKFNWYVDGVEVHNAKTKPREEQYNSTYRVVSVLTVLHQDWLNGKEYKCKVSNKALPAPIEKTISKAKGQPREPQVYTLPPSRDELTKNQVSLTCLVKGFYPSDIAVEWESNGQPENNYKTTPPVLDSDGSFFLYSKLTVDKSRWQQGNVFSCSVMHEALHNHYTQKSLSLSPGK
Field format: number, assumed s⁻¹, no unit text.

Solved cases (3 shown):
2C7 (scFv_Fc form) (Fc fusion, not shown: human Fc segment of the eukaryotic expression vector V152) scFv: EVQLLESGGGLVQPGGSLRLSCAASGFTFKLPAMSWVRQAPGKGLEWVSAITGSGGSTYYADSVKGRFTISRDNSKNTLYLQMNSLRAEDTAVYYCAKVRYGWGAGAFDYWGQGTLVTVSSGGGGSGGGGSGGGGSDIQMTQSPSTLSASVGDRVTITCRASQSISSWLAWYQQKPGKAPKLLIYDASSLESGVPSRFSGSGSGTEFTLTISSLQPDDFATYYCQQYDTYPPITFGQGTKVEIK    9.15e-05
2D4 (scFv_Fc form) (Fc fusion, not shown: human Fc segment of the eukaryotic expression vector V152) scFv: EVQLLESGGGLVQPGGSLRLSCAASGFTFRKYAMGWVRQAPGKGLEWVSGISGSVGSTYYADSVKGRFTISRDNSKNTLYLQMNSLRAEDTAVYYCAKVRYGWGAGAFDYWGQGTLVTVSSGGGGSGGGGSGGGGSDIQMTQSPSTLSASVGDRVTITCRASQSISSWLAWYQQKPGKAPKLLIYDASSLESGVPSRFSGSGSGTEFTLTISSLQPDDFATYYCQQYDTYPPITFGQGTKVEIK    0.000113
5D7 (scFv_Fc form) (Fc fusion, not shown: human Fc segment of the eukaryotic expression vector V152) scFv: EVQLLESGGGLVQPGGSLRLSCAASGFTFSNYAMSWVRQAPGKGLEWVSGIRSSGGRTFYADSVKGRFTISRDNSKNTLYLQMNSLRAEDTAVYYCARVAFSGSFDYWGQGTLVTVSSGGGGSGGGGSGGGGSDIQMTQSPSTLSASVGDRVTITCRASQSISSWLAWYQQKPGKAPKLLIYDASSLESGVPSRFSGSGSGTEFTLTISSLQPDDFATYYCQQRNRYPPTFGQGTKVEIK    0.000247

Now for the binder whose koff we want.
Entry under test: 1B11 (scFv_Fc form) (Fc fusion, not shown: human Fc segment of the eukaryotic expression vector V152) scFv: EVQLLESGGGLVQPGGSLRLSCAASGFTFSRDALNWVRQAPGKGLEWVSAISGSGGSTFYADSVKGRFTISRDNSKNTLYLQMNSLRAEDTAVYYCAKVRYGWGAGAFDYWGQGTLVTVSSGGGGSGGGGSGGGGSDIQMTQSPSTLSASVGDRVTITCRASQSISSWLAWYQQKPGKAPKLLIYDASSLESGVPSRFSGSGSGTEFTLTISSLQPDDFATYYCQQYDTYPPITFGQGTKVEIK . Its koff was 0.000263
